test: yeast display, Sf9 membrane polyspecificity reagent, FACS + sequencing; frameworks hold sequencing errors
measurementType: polyreactivity (PSR sort gate)

Guide cases for polyreactivity (PSR sort gate), answers given:
sequencecode=QVQLVESGGGLVQAGGSLRLSCAASGGTFFSYAMGWYRQAPGKERELVAAISRGGDTTYADSVKGRFTISRDNAKNTVYLQMNSLKPEDTAVYYCAARVPPLLTDSPVFPYDYWGQGTQVTVSS readoutvalue="low polyreactivity"
sequencecode=QVQLVESGGGLVQAGGSLRLSCAASGIIFGHYALGWYRQAPGKERELVAAITASSGNTYYADSVKGRFTISRDNAKNTVYLQMNSLKPEDTAVYYCAAVSYSSYRYDSWGQGTQVTVSS readoutvalue="high polyreactivity"
sequencecode=QVQLVESGGGLVQAGGRLRLSCAASGINFSHKVMGWYRQAPGKERELVAAITYSGGSTYYADSVKGRFTSSRDNAKNTVYLQMNSLKPEDTAVYYCNALGVSRRDYDYWGQGTQVTVSS readoutvalue="low polyreactivity"
sequencecode=QVQLVESGGGLFQAGGSLRLSCAASGRIFGAYTMGWYRQAPGKERELVAAISDGGDTYYADSVKGRFTISRDNAKNTVYLQMNSLKPEDTAVYYCAADAPYYAYYWYPSSLGIYGYWGQGTQVTVSS readoutvalue="low polyreactivity"

# context switch: different sequence, same polyreactivity (PSR sort gate)
### Prompt // Input: QVQLVESGGGLVQAGGSLRLSCAASGLTFWHYAMGWYRQAHGKERELVAAISSGGRTYYADSVKGRFTISRDNAKNTVYLKMNSLKPEDSAVYYCAARGPQYYVYGYDYWGQGTQVTVSS . Output its polyreactivity (PSR sort gate) only.
### Response high polyreactivity
